- Tested on: Pseudomonas aeruginosa ATCC27853
- procedure-summary: Qualitative evaluation of antimicrobial activity (inhibition zone, spot on agar)
- Assay type: cell-based
- Design: key: (+) inhibited bacterial growth; (-) did not inhibit bacterial growth
- conditions: 0.06 g/2 mL DMSO, 5 µL spot
measurement-type: Qualitative antimicrobial activity, Pseudomonas aeruginosa ATCC27853

[[record]]
compound = "Cc1nn(CNc2ccccc2Cl)c(C)c1[N+](=O)[O-]"
test_target = "Pseudomonas aeruginosa ATCC27853"
endpoint_result = "+"

[[record]]
compound = "Cc1nn(CNc2cccc(Cl)c2)c(C)c1[N+](=O)[O-]"
test_target = "Pseudomonas aeruginosa ATCC27853"
endpoint_result = "+"

[[record]]
compound = "Cc1nn(CN(Cn2nc(C)c([N+](=O)[O-])c2C)c2cccc(Cl)c2)c(C)c1[N+](=O)[O-]"
test_target = "Pseudomonas aeruginosa ATCC27853"
endpoint_result = "-"

[[record]]
compound = "Cc1nn(CN(Cn2nc(C)c([N+](=O)[O-])c2C)c2ccc(Br)cc2)c(C)c1[N+](=O)[O-]"
test_target = "Pseudomonas aeruginosa ATCC27853"
endpoint_result = "-"

[[record]]
compound = "Cc1nn(CNc2ccc(I)cc2)c(C)c1[N+](=O)[O-]"
test_target = "Pseudomonas aeruginosa ATCC27853"
endpoint_result = "-"

[[record]]
compound = "Cc1ncc([N+](=O)[O-])n1CCO [Metronidazole, metronidazole, reference compound]"
test_target = "Pseudomonas aeruginosa ATCC27853"
endpoint_result = "+"

[[record]]
compound = "Cc1nn(CNc2ccc(F)cc2)c(C)c1[N+](=O)[O-]"
test_target = "Pseudomonas aeruginosa ATCC27853"
endpoint_result = "+"

[[record]]
compound = "Cc1nn(CN(Cn2nc(C)c([N+](=O)[O-])c2C)c2ccc(I)cc2)c(C)c1[N+](=O)[O-]"
test_target = "Pseudomonas aeruginosa ATCC27853"
endpoint_result = "-"

[[record]]
compound = "O=C1CN(/N=C/c2ccc([N+](=O)[O-])o2)C(=O)N1 [Nitrofurantoin, nitrofurantoin, reference compound]"
test_target = "Pseudomonas aeruginosa ATCC27853"
endpoint_result = "+"

[[record]]
compound = "Cc1nn(CNc2ccc(Cl)cc2)c(C)c1[N+](=O)[O-]"
test_target = "Pseudomonas aeruginosa ATCC27853"
endpoint_result = "+"

[[record]]
compound = "Cc1nn(CN(Cn2nc(C)c([N+](=O)[O-])c2C)c2ccc(Cl)cc2)c(C)c1[N+](=O)[O-]"
test_target = "Pseudomonas aeruginosa ATCC27853"
endpoint_result = "+"

[[record]]
compound = "Cc1nn(CNc2ccc(Br)cc2)c(C)c1[N+](=O)[O-]"
test_target = "Pseudomonas aeruginosa ATCC27853"
endpoint_result = "-"

[[record]]
compound = "Cc1nn(CN(Cn2nc(C)c([N+](=O)[O-])c2C)c2ccc(F)cc2)c(C)c1[N+](=O)[O-]"
test_target = "Pseudomonas aeruginosa ATCC27853"
endpoint_result = "+"


----------
Measured viability at 48 h, 12.5 µg/mL of individual entries
- procedure-summary: MTT cell viability / cytotoxicity on normal fibroblasts
- Assay type: cell-based, mouse
- conditions: mouse; 12.5 µg/mL, 48h; read-out: Cell viability on NCTC cells (%)
measurement-type: viability at 48 h, 12.5 µg/mL (%)

[[record]]
molecule = "C[C@@H]1CC[C@@]2(OC1)O[C@H]1C[C@H]3[C@@H]4CC=C5C[C@@H](O[C@@H]6O[C@H](CO)[C@@H](O[C@@H]7O[C@@H](C)[C@H](O)[C@@H](O)[C@H]7O)[C@H](O)[C@H]6O[C@@H]6O[C@@H](C)[C@H](O)[C@@H](O)[C@H]6O)CC[C@]5(C)[C@H]4CC[C@]3(C)[C@H]1[C@@H]2C [dioscin, reference compound]"
units_text = "%"
endpoint_result = 37

[[record]]
molecule = "Cc1nn(CN(Cn2nc(C)c([N+](=O)[O-])c2C)c2ccc(Cl)cc2)c(C)c1[N+](=O)[O-]"
units_text = "%"
endpoint_result = 84

